target: AGO2 T357M (Homo sapiens, UniProt Q9UKV8 1-859, T357M;S387D;S824A;S828D;S831D;S834A); assay: RNA Bind-n-Seq (nitrocellulose filter binding and sequencing); miR-122 guide loaded in AGO2; 60 min incubation; 30 mM Tris pH 8.0, 100 mM potassium acetate, 2 mM magnesium acetate, 0.5 mM TCEP, 0.005% NP-40, 0.01 mg/ml yeast tRNA; 3 nM AGO2-miR-122, 100 nM RNA library; 60; high values mean tight binding; details: protein: recombinant; tags: His6 (N-terminal, pFastBac HTA)
Sequence (Q9UKV8 whole entry T357M/S387D/S824A/S828D/S831D/S834A): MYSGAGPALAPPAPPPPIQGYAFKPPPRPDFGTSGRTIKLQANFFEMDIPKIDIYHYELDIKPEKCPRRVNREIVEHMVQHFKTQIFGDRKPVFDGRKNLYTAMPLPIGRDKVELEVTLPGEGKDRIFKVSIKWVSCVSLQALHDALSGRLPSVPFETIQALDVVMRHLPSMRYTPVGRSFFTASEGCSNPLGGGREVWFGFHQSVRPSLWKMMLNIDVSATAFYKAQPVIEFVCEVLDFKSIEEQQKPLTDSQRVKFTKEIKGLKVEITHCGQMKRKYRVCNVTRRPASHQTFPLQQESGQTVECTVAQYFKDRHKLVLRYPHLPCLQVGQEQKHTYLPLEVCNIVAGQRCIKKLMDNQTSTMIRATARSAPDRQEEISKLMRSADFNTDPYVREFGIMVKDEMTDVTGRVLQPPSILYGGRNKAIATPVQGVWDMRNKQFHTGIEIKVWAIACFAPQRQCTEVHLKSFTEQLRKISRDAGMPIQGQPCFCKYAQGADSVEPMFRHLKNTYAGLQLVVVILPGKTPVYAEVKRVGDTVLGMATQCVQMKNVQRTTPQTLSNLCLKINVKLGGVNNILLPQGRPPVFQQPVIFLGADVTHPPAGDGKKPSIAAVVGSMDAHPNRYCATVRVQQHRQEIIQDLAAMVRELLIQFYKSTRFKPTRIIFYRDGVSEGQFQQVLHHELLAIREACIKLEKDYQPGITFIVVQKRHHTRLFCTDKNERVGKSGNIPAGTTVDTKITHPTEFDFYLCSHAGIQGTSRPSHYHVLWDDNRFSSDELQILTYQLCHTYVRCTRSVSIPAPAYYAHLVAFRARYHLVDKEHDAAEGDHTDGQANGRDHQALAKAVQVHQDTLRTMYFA
property: binding signal

GCGCCCTG (ssRNA, constant regions annealed to DNA blockers; guide miR-122 5' phosphate) RNA 1: GAGUUCUACAGUCCGACGAUCCCAACGCGCCCUGCACCUGGAAUUCUCGGGUGCCAA RNA 2: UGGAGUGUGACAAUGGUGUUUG DNA 1: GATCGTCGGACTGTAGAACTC DNA 2: TTGGCACCCGAGAATTCCA
0.675 fold enrichment over input
ACACCCCG (ssRNA, constant regions annealed to DNA blockers; guide miR-122 5' phosphate) RNA 1: GAGUUCUACAGUCCGACGAUCCCAACACACCCCGCACCUGGAAUUCUCGGGUGCCAA RNA 2: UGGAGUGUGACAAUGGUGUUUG DNA 1: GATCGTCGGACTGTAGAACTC DNA 2: TTGGCACCCGAGAATTCCA
0.517 fold enrichment over input
GTGCCCTG (ssRNA, constant regions annealed to DNA blockers; guide miR-122 5' phosphate) RNA 1: GAGUUCUACAGUCCGACGAUCCCAACGUGCCCUGCACCUGGAAUUCUCGGGUGCCAA RNA 2: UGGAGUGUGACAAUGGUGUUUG DNA 1: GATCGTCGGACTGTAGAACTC DNA 2: TTGGCACCCGAGAATTCCA
0.581 fold enrichment over input

Would you be so kind as to report binding signal for each listed record?
1. GTACCTCG (ssRNA, constant regions annealed to DNA blockers; guide miR-122 5' phosphate) RNA 1: GAGUUCUACAGUCCGACGAUCCCAACGUACCUCGCACCUGGAAUUCUCGGGUGCCAA RNA 2: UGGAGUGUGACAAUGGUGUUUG DNA 1: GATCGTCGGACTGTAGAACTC DNA 2: TTGGCACCCGAGAATTCCA
2. GCGCCCTA (ssRNA, constant regions annealed to DNA blockers; guide miR-122 5' phosphate) RNA 1: GAGUUCUACAGUCCGACGAUCCCAACGCGCCCUACACCUGGAAUUCUCGGGUGCCAA RNA 2: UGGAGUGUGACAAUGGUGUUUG DNA 1: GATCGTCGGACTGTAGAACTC DNA 2: TTGGCACCCGAGAATTCCA
3. ACGTCTCA (ssRNA, constant regions annealed to DNA blockers; guide miR-122 5' phosphate) RNA 1: GAGUUCUACAGUCCGACGAUCCCAACACGUCUCACACCUGGAAUUCUCGGGUGCCAA RNA 2: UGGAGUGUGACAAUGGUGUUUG DNA 1: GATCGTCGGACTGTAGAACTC DNA 2: TTGGCACCCGAGAATTCCA
4. GTGCCCCA (ssRNA, constant regions annealed to DNA blockers; guide miR-122 5' phosphate) RNA 1: GAGUUCUACAGUCCGACGAUCCCAACGUGCCCCACACCUGGAAUUCUCGGGUGCCAA RNA 2: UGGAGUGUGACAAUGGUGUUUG DNA 1: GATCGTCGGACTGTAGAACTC DNA 2: TTGGCACCCGAGAATTCCA
5. ACGTCCTA (ssRNA, constant regions annealed to DNA blockers; guide miR-122 5' phosphate) RNA 1: GAGUUCUACAGUCCGACGAUCCCAACACGUCCUACACCUGGAAUUCUCGGGUGCCAA RNA 2: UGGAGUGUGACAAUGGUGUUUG DNA 1: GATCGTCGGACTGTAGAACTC DNA 2: TTGGCACCCGAGAATTCCA

Result:
1: 0.419 fold enrichment over input; 2: 0.721 fold enrichment over input; 3: 0.689 fold enrichment over input; 4: 0.677 fold enrichment over input; 5: 0.603 fold enrichment over input

The reported numbers originate from paper PMC12529666.
